Overview of recorded Ki for various compounds
# Target or system: Neuronal acetylcholine receptor; alpha3/beta4 (Rattus norvegicus, UniProt P04757+P12392)
# Sequence (P04757 whole entry): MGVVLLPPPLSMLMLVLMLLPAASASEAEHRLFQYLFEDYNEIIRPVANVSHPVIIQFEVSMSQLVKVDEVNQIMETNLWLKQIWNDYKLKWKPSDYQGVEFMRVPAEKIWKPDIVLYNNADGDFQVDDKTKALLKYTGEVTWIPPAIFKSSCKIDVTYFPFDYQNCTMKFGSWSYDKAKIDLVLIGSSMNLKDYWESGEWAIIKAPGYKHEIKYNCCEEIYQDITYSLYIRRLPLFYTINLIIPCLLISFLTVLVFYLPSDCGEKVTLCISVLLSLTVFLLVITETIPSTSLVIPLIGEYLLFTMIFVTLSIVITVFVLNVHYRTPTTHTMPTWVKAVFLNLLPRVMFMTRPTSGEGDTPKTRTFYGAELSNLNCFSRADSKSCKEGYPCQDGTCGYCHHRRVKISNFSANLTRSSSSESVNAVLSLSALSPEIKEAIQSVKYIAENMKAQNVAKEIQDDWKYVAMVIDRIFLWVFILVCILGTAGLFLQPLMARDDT
# Sequence (P12392 whole entry): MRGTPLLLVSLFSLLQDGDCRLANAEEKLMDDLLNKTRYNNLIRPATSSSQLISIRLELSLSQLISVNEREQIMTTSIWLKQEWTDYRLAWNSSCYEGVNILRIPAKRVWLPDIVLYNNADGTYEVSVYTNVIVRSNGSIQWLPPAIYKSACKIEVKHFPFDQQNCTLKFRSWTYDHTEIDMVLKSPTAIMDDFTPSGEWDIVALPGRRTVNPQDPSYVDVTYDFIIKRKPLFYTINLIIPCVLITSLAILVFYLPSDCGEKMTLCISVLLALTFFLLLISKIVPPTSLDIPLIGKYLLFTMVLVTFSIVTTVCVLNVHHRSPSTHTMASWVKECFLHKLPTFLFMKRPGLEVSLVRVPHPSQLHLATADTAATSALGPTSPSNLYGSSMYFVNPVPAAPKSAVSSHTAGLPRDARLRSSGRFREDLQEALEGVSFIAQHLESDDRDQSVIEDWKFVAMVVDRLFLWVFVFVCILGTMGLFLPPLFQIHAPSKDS
# Measurement protocol: Displacement of [3H]epibatidine from rat alpha3beta4 nAChR expressed in HEK293 cell membranes after 4 hrs by scintillation counting method

Reference set (5 entries):
>  <Compound>
CC[N+]1(C)CCc2cc(OC)c(OC)cc2C1 (stereo unspecified)

>  <Ki>
> 300 µM

$$$$
>  <Compound>
COc1ccc(CC2c3cc(OC)c(OC)cc3CC[N+]2(C)C)cc1OC (stereo unspecified)

>  <Ki>
> 100 µM

$$$$
>  <Compound>
C=CC[N+]1(C)CCc2cc(OC)c(OC)cc2C1 (stereo unspecified)

>  <Ki>
> 300 µM

$$$$
>  <Compound>
c1c2c(cc3c1OCO3)[C@@H]1CCCN1CC2

>  <Ki>
> 100 µM

$$$$
>  <Compound>
COc1ccc2c(c1)CCN1CCCC21 (stereo unspecified)

>  <Ki>
> 100 µM

$$$$

Query compound follows.
Give me measured Ki, please, for this compound: c1c2c(cc3c1OCO3)C1CCCN1CC2 (stereo unspecified)
> 100 µM

---

# Target or system: Neuronal acetylcholine receptor; alpha3/beta4 (Rattus norvegicus, UniProt P04757+P12392)
# Measurement protocol: Antagonist activity at rat alpha3beta4 nAChR expressed in HEK293 cells assessed as inhibition of (S)-nicotine-induced […] response measured up to 90 secs by FMP assay
pIC50: −log10 of the molar value.
Value type: pIC50

Use the examples below as a reference point.
>  <Compound>
COc1cc2c(cc1OCc1ccccc1)CN(C)CC2

>  <Target or system>
Neuronal acetylcholine receptor; alpha3/beta4 (Rattus norvegicus, UniProt P04757+P12392)

>  <pIC50>
< 3.52

$$$$
>  <Compound>
COc1cc2c(cc1OC)[C@H]1CCCN1CC2

>  <Target or system>
Neuronal acetylcholine receptor; alpha3/beta4 (Rattus norvegicus, UniProt P04757+P12392)

>  <pIC50>
< 4.00

$$$$
>  <Compound>
c1ccc2c(c1)CCN1CCCC21 (stereo unspecified)

>  <Target or system>
Neuronal acetylcholine receptor; alpha3/beta4 (Rattus norvegicus, UniProt P04757+P12392)

>  <pIC50>
< 4.00

$$$$
>  <Compound>
c1c2c(cc3c1OCO3)[C@@H]1CCCN1CC2

>  <Target or system>
Neuronal acetylcholine receptor; alpha3/beta4 (Rattus norvegicus, UniProt P04757+P12392)

>  <pIC50>
< 4.00

$$$$
>  <Compound>
COc1cc2c(cc1O)CN(C)CC2

>  <Target or system>
Neuronal acetylcholine receptor; alpha3/beta4 (Rattus norvegicus, UniProt P04757+P12392)

>  <pIC50>
4.00

$$$$
>  <Compound>
COc1cc2c(cc1OCc1ccccc1)CCN(C)C2

>  <Target or system>
Neuronal acetylcholine receptor; alpha3/beta4 (Rattus norvegicus, UniProt P04757+P12392)

>  <pIC50>
4.00

$$$$

Pending compound:
Give recorded pIC50. CCC[N+]1(C)CCc2cc(OC)c(OC)cc2C1 (stereo unspecified)
< 3.52

---

# Target or system: Neuronal acetylcholine receptor; alpha4/beta4 (Rattus norvegicus, UniProt P09483+P12392)
# Sequence (P09483 whole entry): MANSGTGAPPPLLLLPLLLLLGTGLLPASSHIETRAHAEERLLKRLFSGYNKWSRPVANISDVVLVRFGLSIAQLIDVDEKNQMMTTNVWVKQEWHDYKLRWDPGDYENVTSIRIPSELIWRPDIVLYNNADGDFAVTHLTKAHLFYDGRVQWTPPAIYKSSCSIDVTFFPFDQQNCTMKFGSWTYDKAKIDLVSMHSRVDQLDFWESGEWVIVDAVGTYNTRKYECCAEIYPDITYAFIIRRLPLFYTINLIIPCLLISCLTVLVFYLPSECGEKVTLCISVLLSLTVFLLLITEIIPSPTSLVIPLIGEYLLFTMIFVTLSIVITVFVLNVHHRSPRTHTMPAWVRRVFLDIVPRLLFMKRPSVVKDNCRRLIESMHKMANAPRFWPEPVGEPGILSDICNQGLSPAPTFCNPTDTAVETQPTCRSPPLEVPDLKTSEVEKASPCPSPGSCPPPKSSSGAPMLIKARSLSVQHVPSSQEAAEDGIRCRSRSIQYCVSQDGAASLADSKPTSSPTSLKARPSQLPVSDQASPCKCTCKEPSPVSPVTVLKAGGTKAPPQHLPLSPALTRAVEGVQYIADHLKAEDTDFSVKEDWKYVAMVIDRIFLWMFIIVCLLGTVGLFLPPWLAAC
# Sequence (P12392 whole entry): as the sequence (P12392 whole entry) above
# Measurement protocol: Displacement of [3H]epibatidine from rat alpha4beta4 nAChR expressed in HEK293 cell membranes after 4 hrs by scintillation counting method
# Lookup of reported pKi keyed by entry
API: returns pKi as number; meaning -log10 of concentration in mol/L.

Quick one: give measured pKi for COc1ccc2c(c1)CC[N+]1(C)CCCC21 (stereo not drawn)
4.92

Annotate the compound `COc1cc2c(cc1O)C[N+](C)(C)CC2` with its measured pKi.
5.05

Respond only with pKi recorded for c1c2c(cc3c1OCO3)C1CCCN1CC2 (stereo not drawn)
5.03

---

# Target or system: Neuronal acetylcholine receptor; alpha3/beta4 (Rattus norvegicus, UniProt P04757+P12392)
# Measurement protocol: Antagonist activity at rat alpha3beta4 nAChR expressed in HEK293 cells assessed as inhibition of (S)-nicotine-induced […] response measured up to 90 secs by FMP assay
pIC50: −log10 of the molar value.
Value type: pIC50

Solved cases (5 shown):
>  <Compound>
COc1ccc2c(c1)CCN(C)C2

>  <pIC50>
< 4.00

$$$$
>  <Compound>
COc1ccc2c(c1)C1CCCN1CC2 (centres undefined)

>  <pIC50>
< 4.00

$$$$
>  <Compound>
COc1cc2c(cc1OCc1ccccc1)CC[N+]1(C)CCCC21 (centres undefined)

>  <pIC50>
3.52

$$$$
>  <Compound>
COc1cc2c(cc1OC)C[N+](C)(C)CC2

>  <pIC50>
< 3.52

$$$$
>  <Compound>
CC[N+]1(C)CCc2cc(OC)c(OC)cc2C1 (centres undefined)

>  <pIC50>
< 3.52

$$$$

Now for another entry.
Give the value of pIC50 reported for the following: `COc1cc2c(cc1OC)[C@@H]1CCCN1CC2`
< 4.00

---

# Target or system: Neuronal acetylcholine receptor; alpha3/beta4 (Rattus norvegicus, UniProt P04757+P12392)
# Measurement protocol: Antagonist activity at rat alpha3beta4 nAChR expressed in HEK293 cells assessed as inhibition of (S)-nicotine-induced […] response measured up to 90 secs by FMP assay
pIC50: −log10 of the molar value.
Overview of reported pIC50 across a group of compounds:

>  <Compound>
C=CC[N+]1(C)CCc2cc(OC)c(OC)cc2C1 (stereo not drawn)

>  <Value type>
pIC50

>  <Result>
< 3.52

$$$$
>  <Compound>
COc1ccc2c(c1)CCN1CCCC21 (stereo not drawn)

>  <Value type>
pIC50

>  <Result>
< 4.00

$$$$
>  <Compound>
C[N+]1(C)CCc2cc3c(cc2C1)OCO3

>  <Value type>
pIC50

>  <Result>
< 3.52

$$$$

Respond only with pIC50 recorded for COc1ccc2c(c1)C1CCC[N+]1(C)CC2 (stereo not drawn)
4.30

Look up and state reported pIC50 for `COc1ccc2c(c1)CC[N+](C)(C)C2`
< 4.00

Using the record for C[N+]12CCCC1c1cc3c(cc1CC2)OCO3 (stereo not drawn) , state its measured pIC50.
4.52

Give the reported value of pIC50 for this record: `c1c2c(cc3c1OCO3)[C@H]1CCCN1CC2`
< 4.00

Answer with the recorded pIC50 for the compound listed here: C[N+]12CCC[C@@H]1c1cc3c(cc1CC2)OCO3 (stereo partly drawn)
4.30
